System: PLA2 activity of N. nigricollis venom
Assay: Miniaturised 384-well colorimetric sPLA2 assay, N. nigricollis venom
Settings: re-sourced drugs, 10 µM, 5 ng venom, varespladib normalised as 100%
Recorded Endpoint: % inhibition: N. nigricollis

Lab note: measured % inhibition: N. nigricollis of `Cc1cc2c(C(C)C)c(O)c(O)c(C=O)c2c(O)c1-c1c(C)cc2c(C(C)C)c(O)c(O)c(C=O)c2c1O` was 64%

API: the following record is the query input.
Lab note: measured % inhibition: N. nigricollis of O=c1c(O)c(-c2ccc(O)c(O)c2)oc2cc(O)cc(O)c12 [Quercetin (dihydrate), quercetin dihydrate] was < 15%

----------
Tested on: PLA2 activity of D. russelii venom
Assay: Miniaturised 384-well colorimetric sPLA2 assay, D. russelii venom
Type: biochemical, Daboia russelii
Conditions: 10 µM, D. russelii venom
Structures can show the parent of a compound that is named as a salt.
Field: mean inhibition between screen and rescreen. Provide a value for each of the compounds that follow.
Give bare numbers, in %.

Lab note: measured mean inhibition between screen and rescreen of `CC(=O)O.Cc1cc2c(C(C)C)c(O)c(O)c(C=O)c2c(O)c1-c1c(C)cc2c(C(C)C)c(O)c(O)c(C=O)c2c1O` was 89.2

Lab note: measured mean inhibition between screen and rescreen of O=C1O[C@H]2[C@@H]3OC(=O)c4cc(O)c(O)c(O)c4-c4c(O)c(O)c5oc(=O)c6c(c(O)c(O)c7oc(=O)c4c5c76)-c4c(cc(O)c(O)c4O)C(=O)OC[C@H]3OC(O)[C@@H]2OC(=O)c2cc(O)c(O)c(O)c2-c2c1cc(O)c(O)c2O (mixture of isomers) was 71.7

Lab note: measured mean inhibition between screen and rescreen of CC1(C)C2CCC1(C)C(O)C2 (racemic) was 95.1

Quick request: mean inhibition between screen and rescreen for each listed item, please.
1. CC(=O)Oc1cc2c(s1)CCN(C(C(=O)C1CC1)c1ccccc1F)C2 (centres unmarked) [Prasugrel (hydrochloride), prasugrel hydrochloride]
2. Cc1cc2c(C(C)C)c(O)c(O)c(C=O)c2c(O)c1-c1c(C)cc2c(C(C)C)c(O)c(O)c(C=O)c2c1O

[83.9, 76.6]

----------
Test system: PLA2 activity of D. russelii venom
Assay: Miniaturised 384-well colorimetric sPLA2 assay, D. russelii venom
Assay type: biochemical, Daboia russelii
Details: re-sourced drugs, 10 µM, 30 ng venom, varespladib normalised as 100%
Where a name gives a salt, the structure may show the parent alone.
Recorded Endpoint: % inhibition: D. russelii

Lab note: measured % inhibition: D. russelii of O=c1c(O)c(-c2ccc(O)c(O)c2)oc2cc(O)cc(O)c12 [Quercetin (dihydrate), quercetin dihydrate] was 42%

Lab note: measured % inhibition: D. russelii of O=C1O[C@H]2[C@@H]3OC(=O)c4cc(O)c(O)c(O)c4-c4c(O)c(O)c5oc(=O)c6c(c(O)c(O)c7oc(=O)c4c5c76)-c4c(cc(O)c(O)c4O)C(=O)OC[C@H]3OC(O)[C@@H]2OC(=O)c2cc(O)c(O)c(O)c2-c2c1cc(O)c(O)c2O (mixture of isomers) was above 72%

Lab note: measured % inhibition: D. russelii of CC(=O)Oc1cc2c(s1)CCN(C(C(=O)C1CC1)c1ccccc1F)C2 (centres unmarked) [Prasugrel (hydrochloride), prasugrel hydrochloride] was above 72%

The values you see were collected from paper PMC10808766.
